# System: SMMC7721
# experimentDescription: MTT assay, IC50 of anagrelide on tumor cell line
# Type: cell-based
# testContext: Homo sapiens, SMMC-7721, 72 h
assayReadout: pIC50
When answering, recall that pIC50 equals minus log10 of the concentration in mol/L, and write that number alone.

Can you look up the measured pIC50 of O=C1CN2Cc3c(ccc(Cl)c3Cl)NC2=N1 [anagrelide] for me?
7.82

---

# System: Bel7404, A498 and SW1116
# experimentDescription: Antitumor activity assay (MTT), moderately sensitive PDE3A-positive cell lines
# Type: cell-based, human
# testContext: Homo sapiens; Bel7404, A498, SW1116 (PDE3A positive)
pIC50: −log10 of the molar value.
assayReadout: pIC50

Please give the measured pIC50 for this molecule: O=C1CN2Cc3c(ccc(Cl)c3Cl)NC2=N1 [anagrelide]
4.80 to 6.40

---

# System: Hela
# experimentDescription: MTT assay, IC50 of anagrelide on tumor cell line
# Format: cell-based
# testContext: Homo sapiens, 72 h
assayReadout: pIC50
Conceptually, pIC50 converts a concentration in mol/L into minus its log10.

Given O=C1CN2Cc3c(ccc(Cl)c3Cl)NC2=N1 [anagrelide] , state its recorded pIC50.
7.66

---

# Tested on: SMMC7721, FHCC98, H4, and HeLa
# experimentDescription: Antitumor activity assay (MTT), anagrelide-sensitive PDE3A-positive cell lines
# Format: cell-based, human
# testContext: Homo sapiens; SMMC7721, FHCC98, H4, HeLa (PDE3A positive); read-out: IC50 values, sensitive cell lines
assayReadout: IC50

Given the entry O=C1CN2Cc3c(ccc(Cl)c3Cl)NC2=N1 [anagrelide] , report its measured IC50.
< 30 nM

---

# Test system: Twenty cell lines negatively expressing PDE3A
# experimentDescription: Antitumor activity assay (MTT), PDE3A-negative cell lines
# Type: cell-based, human
# testContext: Homo sapiens; twenty cell lines negatively expressing PDE3A
pIC50: −log10 of the molar value.
assayReadout: pIC50

Item under review: O=C1CN2Cc3c(ccc(Cl)c3Cl)NC2=N1 [anagrelide] . Reported pIC50?
< 4.30
